Source: BindingDB's records for doi:10.1111/j.1747-0285.2009.00909.x

- testTarget: Heme oxygenase 2 (Rattus norvegicus, UniProt P23711)
- Sequence (P23711 whole entry): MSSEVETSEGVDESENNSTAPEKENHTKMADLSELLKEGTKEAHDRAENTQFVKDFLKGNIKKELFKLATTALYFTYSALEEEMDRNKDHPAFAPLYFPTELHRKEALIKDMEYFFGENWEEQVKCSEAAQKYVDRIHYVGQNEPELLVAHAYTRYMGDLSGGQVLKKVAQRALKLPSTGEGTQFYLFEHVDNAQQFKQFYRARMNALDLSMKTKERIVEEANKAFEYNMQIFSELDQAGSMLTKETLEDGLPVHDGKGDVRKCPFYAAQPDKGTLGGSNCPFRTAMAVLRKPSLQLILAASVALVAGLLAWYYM
- testSummary: Heme Oxygenase
- conditionSummary: pH 7.4; 25 °C
pIC50: −log10 of the molar value.
measuredEndpoint: pIC50

1. O=C(CCc1ccccc1)Cn1nccn1: < 4.00
2. O=C(CCc1ccccc1)Cn1cnc(Cl)c1Cl: < 4.00
3. Cc1nccn1CC(=O)CCc1ccccc1: < 4.00
4. CSc1ncn(CC(=O)CCc2ccccc2)n1: < 4.00
5. O=C(CCc1ccccc1)Cn1ccnc1-c1ccccc1: < 4.00
6. O=C(CCc1ccccc1)Cn1cccn1: < 4.00
7. CSc1nnn(CC(=O)CCc2ccccc2)n1: < 4.00
8. O=C(CCc1ccccc1)Cn1nc2ccccc2n1: < 4.00
9. O=C(CCc1ccccc1)Cn1nc(Br)nc1Br: < 4.00
